# System: panel of nearly 500 cancer cell lines
# PROCEDURE SUMMARY: Cancer Cell Line Encyclopedia profiling, 3-day CellTiter-Glo
# Assay type: cell-based
# SETUP CONDITIONS: Homo sapiens, MSTO-211H
RESULT TYPE: IC50

Incoming: Name the recorded IC50 for CN(C)C(=O)c1cc2cnc(Nc3ccc(N4CCNCC4)cn3)nc2n1C1CCCC1 .
Outgoing: > 8 µM

* * *

// values below are reported EC50
# Tested on: panel of nearly 500 cancer cell lines
# PROCEDURE SUMMARY: Cancer Cell Line Encyclopedia profiling, 3-day CellTiter-Glo
# Assay type: cell-based
# SETUP CONDITIONS: NCI-H2172

# COMPOUND, STUDY SYSTEM, EC50
data = [
    ("CN(C)C(=O)c1cc2cnc(Nc3ccc(N4CCNCC4)cn3)nc2n1C1CCCC1", "panel of nearly 500 cancer cell lines", "> 8 µM"),
]

Please look at the following compound next.
Incoming: Name the recorded EC50 for CC(=O)c1c(C)c2cnc(Nc3ccc(N4CCNCC4)cn3)nc2n(C2CCCC2)c1=O [Palbociclib, reference compound] .
Outgoing: > 8 µM
